Recorded protein stability index for the following variants
B1: USP39 (parent)
chain: FQGSMRIFTKKLPHPDLPAEEKEQ

Variants of: B1
Test: protein stability index of a GFP-peptide fusion (GPS, HEK-293T) (PSI 1-6); higher = more stable;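 further: lentivirally expressed fusions sorted by FACS into six bins by GFP to DsRed ratio, PSI derived from sequencing read proportions per bin multiplied by bin number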
Conditions: c terminus: a fixed tail appended
The response must contain the number and no unit.

Answered examples (2):
Q2H
3.58
E20T
2.17

Briefly, protein stability index measured for Q2E : 4.12

Briefly, protein stability index measured for F8V : 3.04

Briefly, protein stability index measured for E21L : 2.04

Briefly, protein stability index measured for F1A : 5.07

Briefly, protein stability index measured for L17I : 1.89

Briefly, protein stability index measured for E23S : 1.98

Briefly, protein stability index measured for K10D : 2.07

Briefly, protein stability index measured for T9Q : 2.19

Briefly, protein stability index measured for G3A : 2.61

Briefly, protein stability index measured for D16T : 2.64
